Hey, just so you know, these numbers are from ChEMBL document CHEMBL1129746.

target: Human immunodeficiency virus 1; assay: Tested for antiviral activity in HIV-1 IIIB-infected H9 cells
pIC50: −log10 of the molar value.
Property: pIC50

// known answers, use as guide
CCC[C@]1(CCc2ccccc2)CC(=O)C([C@@H](CC)c2cccc(NS(=O)(=O)c3ccc(C#N)cn3)c2)=C(O)O1 ... < 6.00
CCC[C@]1(CCc2ccccc2)CC(=O)C([C@@H](CC)c2cccc(NS(=O)(=O)c3cn(C)cn3)c2)=C(O)O1 (stereo in doubt; Vc) ... < 6.00

Kindly review the next compound as well.
Quick check: pIC50 on Human immunodeficiency virus 1, item CCC[C@]1(CCc2ccccc2)CC(=O)C([C@@H](CC)c2cccc(NS(=O)(=O)c3cn(C)cn3)c2)=C(O)O1 (stereo in doubt; Vd) ?
< 6.00
